system: HCT116 (human colon carcinoma) cells; experiment: HCT116 cytotoxicity assay (CellTiter-Glo); format: cell-based; conditions: HCT-116, 72 h, cytotoxicity, three days culture, read-out: HCT116 IC50
RESULT_TYPE: pIC50
Scale explanation: pIC50 corresponds to minus log10 of a concentration expressed in moles per litre.

>  <MOLECULE>
NC(=O)/C(=C1\Nc2ccc(S(=O)(=O)N3CCNCC3)cc2S1)c1nccc(C(F)(F)F)n1 [Compound 129A]

>  <RESULT_TYPE>
pIC50

>  <READOUT_NUMBER>
6.00

$$$$

query: Given CC(C)(C)c1cc(C(F)(F)F)nc(C(C(N)=O)=C2Nc3ccccc3S2)n1 (single isomer, unassigned) , respond with its pIC50.
result: 5.22

query: Determine from records and report pIC50 for NC(=O)/C(=C1\Nc2ccc(C(=O)NC3CCNCC3)cc2N1)c1nccc(C(F)(F)F)n1 [Compound 70A]
result: 6.22

query: Quote pIC50 reported for NC(=O)/C(=C1\Nc2ccc(C(=O)Nc3ccc(CN4CCOCC4)cc3)cc2N1)c1nccc(C(F)(F)F)n1 [Compound 72A] please.
result: 6.70

query: Determine from records and report pIC50 for NC(=O)/C(=C1\Nc2ccc(C(=O)NCCCn3ccnc3)cc2N1)c1nccc(C(F)(F)F)n1 [Compound 45A]
result: 6.30
